Data credit: patent US20120010075A1

- Test system: Leptosphaeria nodorum (LEPTNO)
- Experimental Protocol: In vitro fungitoxicity of hydrazones with and without copper towards Leptosphaeria nodorum (Example 26)
- Assay type: cell-based
- Experimental Setup: Parastagonospora nodorum, 72 h, compound 0.05 μg/mL, copper-minus medium, 72 h at 25° C.; read-out: LEPTNO % Inhn. Minus Copper Observed
Measured Property: inhibition of growth at 0.05 µg/mL (%)
Numbers only, in %.

In [3]: df
Out[3]:
                           structure_string                   measured_property  meas_value
0           Cc1cccc(/C=N/NC(=O)c2ccccc2)c1O  inhibition of growth at 0.05 µg/mL         2.3
1    COc1ccc(O)c(/C(C)=N/NC(=O)c2ccccc2C)c1  inhibition of growth at 0.05 µg/mL         3.1
2  CCc1ccc(C(=O)N/N=C/c2cc(Cl)cc(Cl)c2O)cc1  inhibition of growth at 0.05 µg/mL        11.2
3     Cc1ccccc1C(=O)N/N=C/c1cc(Cl)cc(Cl)c1O  inhibition of growth at 0.05 µg/mL         7.6
4  C/C(=N\NC(=O)c1ccccc1Cl)c1cc(Cl)cc(Cl)c1O  inhibition of growth at 0.05 µg/mL         2.6

Record inhibition of growth at 0.05 µg/mL per entry; entries follow.
1. CC/C(=N\NC(=O)c1c(Cl)cccc1Cl)c1ccccc1O
2. O=C(N/N=C/c1cc(Cl)cc(Br)c1O)c1ccccc1Br
3. Cc1cc(C)cc(C(=O)N/N=C/c2cc([N+](=O)[O-])cc(Br)c2O)c1
4. COc1cccc(O)c1/C=N/NC(=O)c1ccccc1
5. C/C(=N\NC(=O)c1ccccc1N)c1ccccc1O

1. 0.3
2. 0
3. 5.4
4. 0
5. 0

* * *

Answer each item with its documented LEPTNO % Inhn. Plus Copper Observed.
- Test system: Leptosphaeria nodorum (LEPTNO)
- Experimental Protocol: In vitro fungitoxicity of hydrazones with and without copper towards Leptosphaeria nodorum (Example 26)
- Format: cell-based
- Experimental Setup: copper-plus medium (CuCl2 10 μM); test compound Concn. 0.05 μg/mL; 72 h at 25° C.
Answer as a quantity: numeral, then unit.

                           structure_string  meas_value
0  O=C(N/N=C/c1cc(C(F)(F)F)cc(Cl)c1O)c1ccccc1O       93.5%
1  COc1ccc(C(=O)N/N=C(\C)c2ccc(OC)c(OC)c2O)cc1       95.7%
2  COc1ccc(C(=O)N/N=C(\C)c2cccc([N+](=O)[O-])c2O)cc1       95.9%
3  COc1ccc(O)c(C(=O)N/N=C/c2cc(Cl)cc(Cl)c2O)c1       93.9%
4  O=C(N/N=C/c1cc(C(F)(F)F)cc(Cl)c1O)c1ccc(F)cc1       96.3%
5    C/C(=N\NC(=O)c1ccc(C)cc1)c1cccc(Cl)c1O       97.3%
6  COc1cc(O)c(/C(C)=N/NC(=O)c2cccc(C)c2)c(OC)c1       86.3%
7   C/C(=N\NC(=O)c1ccc(Br)cc1)c1ccc(Cl)cc1O       97.6%
8   COc1cccc(/C(C)=N/NC(=O)c2ccc(Br)cc2)c1O       96.5%
9         O=C(N/N=C/c1c(O)cccc1Cl)c1ccccc1O       96.1%

Record LEPTNO % Inhn. Plus Copper Observed per entry; entries follow.
1. O=C(N/N=C/c1cc(C(F)(F)F)cc(C(F)(F)F)c1O)c1cccc(F)c1
2. COc1ccc(C(=O)N/N=C(\C)c2cccc(OC)c2O)cc1
3. O=C(N/N=C/c1cc(Cl)cc(C(F)(F)F)c1O)c1ccccc1O
4. O=C(N/N=C/c1cccc(C(F)(F)F)c1O)c1ccc(Cl)cc1
5. Cc1ccc(C(=O)N/N=C/c2cc(C(F)(F)F)ccc2O)c(O)c1
6. COc1cccc(/C(C)=N/NC(=O)c2ccc(C)cc2)c1O

["97.8%", "94.8%", "95.8%", "98.3%", "100.0%", "96.4%"]
